system: MKN1 cells, pERK; assay: Inhibition of KRas phosphorylation of ERK (Cisbio HTRF Advanced pERK assay); format: cell-based; settings: Homo sapiens, MKN-1, 3 h, read-out: Inhibition (HTRF IC50 nM) of KRas-mediated Phosphorylation of ERK, MKN1
outcomeMeasure: IC50 (nM)

[[record]]
compound = "CCc1c(F)ccc2cc(O)cc(N3CCc4c(nc(OCC5(CN(C)C)CC5)nc4N4C[C@@H]5C(=O)NC(=O)[C@@H]5C4)C3)c12"
endpointvalue = 27

[[record]]
compound = "CCc1c(F)ccc2cc(O)cc(N3CCc4c(nc(OC[C@@]56CCCN5C[C@H](F)C6)nc4N4CCCn5nncc5C4)C3)c12"
endpointvalue = 20

[[record]]
compound = "O=S1(=O)NCC2(CCCN(c3nc(OC[C@@]45CCCN4C[C@H](F)C5)nc4c3CCN(c3cc(O)cc5ccc(F)c(Br)c35)C4)C2)N1 (stereo partly drawn)"
endpointvalue = 3

[[record]]
compound = "CCc1c(F)ccc2cc(O)cc(N3CCc4c(nc(OC[C@@]56CCCN5C[C@H](F)C6)nc4N4CCC[C@]5(C4)NC(=O)NC5=O)C3)c12"
endpointvalue = 5

[[record]]
compound = "CCc1c(F)ccc2cc(O)cc(N3CCc4c(nc(OC[C@@]56CCCN5C[C@H](F)C6)nc4N4CCCC(O)C4)C3)c12 (stereo partly drawn)"
endpointvalue = 9


[I] CCc1c(F)ccc2cc(O)cc(N3CCc4c(nc(OC[C@@]56CCCN5C[C@H](F)C6)nc4N4C[C@H]5C[C@@H](O)C[C@H]5C4)C3)c12
[II] OCC1COCCN(c2nc(OC[C@@]34CCCN3C[C@H](F)C4)nc3c2CCN(c2cc(O)cc4ccc(F)c(Cl)c24)C3)C1 (stereo partly drawn)
[III] O=C1CC2(CCCN(c3nc(OC[C@@]45CCCN4C[C@H](F)C5)nc4c3CCN(c3cc(O)cc5ccc(F)c(Cl)c35)C4)C2)N1 (stereo partly drawn)
rank_up(items): orders items by reported IC50 in ascending numerical order. // list labels; follow requested order
III, II, I
(III: 40 nM, II: 85 nM, I: 652 nM)

----------
molecular target: KRas^G12C (Homo sapiens, UniProt P01116, G12C); experiment: biochemical
Sequence (P01116 1-169 isoform P01116-2 G12C): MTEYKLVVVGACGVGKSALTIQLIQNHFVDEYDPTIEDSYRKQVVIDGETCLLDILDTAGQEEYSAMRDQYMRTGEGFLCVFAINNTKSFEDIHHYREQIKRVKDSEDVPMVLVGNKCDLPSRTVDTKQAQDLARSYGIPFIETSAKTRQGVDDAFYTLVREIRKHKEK
pIC50: −log10 of the molar value.
outcomeMeasure: pIC50

Below are worked cases with known answers.
[[record]]
molecule = "CCc1cccc2cccc(N3CCc4c(nc(OCC56CCCN5CCC6)nc4N4CCCC5(CC(=O)N5)C4)C3)c12 (centres unmarked)"
testedon = "KRas^G12C (Homo sapiens, UniProt P01116, G12C)"
endpointvalue = 7.43

[[record]]
molecule = "CCc1cccc2cccc(N3CCc4c(nc(OCC56CCCN5CCC6)nc4Nc4cnn(CC(N)=O)c4)C3)c12"
testedon = "KRas^G12C (Homo sapiens, UniProt P01116, G12C)"
endpointvalue = 5.83

[[record]]
molecule = "CCc1cccc2cccc(N3CCc4c(nc(OCC56CCCN5CCC6)nc4N4CCCC(O)C4)C3)c12 (centres unmarked)"
testedon = "KRas^G12C (Homo sapiens, UniProt P01116, G12C)"
endpointvalue = 6.57

[[record]]
molecule = "CCc1cccc2cccc(N3CCc4c(nc(OCC56CCCN5CCC6)nc4N4CCCC(c5ncc(C)s5)C4)C3)c12 (centres unmarked)"
testedon = "KRas^G12C (Homo sapiens, UniProt P01116, G12C)"
endpointvalue = 5.71

[[record]]
molecule = "CCc1cccc2cccc(N3CCc4c(nc(OCC56CCCN5CCC6)nc4N4CCCC(c5ccno5)C4)C3)c12 (centres unmarked)"
testedon = "KRas^G12C (Homo sapiens, UniProt P01116, G12C)"
endpointvalue = 6.00

[[record]]
molecule = "CCc1cccc2cccc(N3CCc4c(nc(OCC56CCCN5CCC6)nc4N4CC(CO)OC5(CCC5)C4)C3)c12 (centres unmarked)"
testedon = "KRas^G12C (Homo sapiens, UniProt P01116, G12C)"
endpointvalue = 5.89


[1] CCc1cccc2cccc(N3CCc4c(nc(OCC56CCCN5CCC6)nc4N4CCOCC(n5cncn5)C4)C3)c12 (centres unmarked)
[2] CCc1cccc2cccc(N3CCc4c(nc(OCC56CCCN5CCC6)nc4N4CCCN(C(=O)c5ccco5)CC4)C3)c12
Among 1 and 2 , which shows a numerically higher pIC50 result? Answer by stating the label of the chosen item.
1
(1: 6.32, 2: 5.52)

[a] CCc1cccc2cccc(N3CCc4c(nc(OCC56CCCN5CCC6)nc4N4CCCC(c5ccn[nH]5)C4)C3)c12 (centres unmarked)
[b] CCc1cccc2cccc(N3CCc4c(nc(OCC56CCCN5CCC6)nc4NCCS(=O)(=O)N=S(C)(C)=O)C3)c12
Could you please tell me which of these two has the higher pIC50: a or b ? Please indicate the selected item by its label.
a

[1] CCc1cccc2cccc(N3CCc4c(nc(OCC56CCCN5CCC6)nc4N4CCCCC(C)C4)C3)c12 (centres unmarked)
[2] CCc1cccc2cccc(N3CCc4c(nc(OCC56CCCN5CCC6)nc4N4CCCn5nc(CO)cc5C4)C3)c12
Kindly identify which of 1 and 2 has the larger recorded pIC50 value. Provide the label of your selected option as the answer.
2
